Ref: ChEMBL document CHEMBL3108754

# System: Streptomyces
# testProtocol: Antimicrobial activity against Streptomyces 85E at 80 ug/disk after 30 hrs by hyphae formation inhibition assay
# Type: functional, organism-based
Active and inactive are the calls of the source. No cut-off for these calls is given here.
measuredEndpoint: Activity

smilesRecord | measuredEndpoint | recordedMeasurement
COC(=O)[C@H]1O[C@@H]2C[C@H]3O[C@@H](n4cnc5c(N)ncnc54)[C@H](OC)[C@H]3O[C@@]2(O)[C@H](O)[C@@H]1O | Activity | inactive
COC(=O)[C@@H]1CC(O)(O)[C@]2(O)O[C@@H]3[C@@H](OC)[C@H](n4cnc5c(N)ncnc54)O[C@@H]3C[C@H]2O1 | Activity | inactive
C/C=C(\CO)C(=O)O[C@H]1[C@H](O)[C@@H](C(=O)OC)O[C@@H]2C[C@H]3O[C@@H](n4cnc5c(N)ncnc54)[C@H](OC)[C@H]3O[C@]21O | Activity | inactive
